# assay.explanation: Chemical stability of the compound
# Format: physicochemical
measure.name: Stability

Solved cases below.
* COc1ccc(CNc2nc(NCC(C)OC(=O)Nc3ccc(C(F)(F)F)cc3)nc3c(NCc4ccc(OC)c(OC)c4)nc(NCC(C)O)nc23)cc1OC (stereo not given) | Stable
* COc1ccc(CNc2nc(NCC(C)OC(=O)Nc3ccccc3)nc3c(NCc4ccc(OC)c(OC)c4)nc(NCC(C)O)nc23)cc1OC (stereo not given) | Stable
* CCOC(=O)[C@H](Cc1ccccc1)NC(=O)OC(C)CNc1nc(NCc2ccc(OC)c(OC)c2)c2nc(NCC(C)OC(=O)N[C@@H](Cc3ccccc3)C(=O)OCC)nc(NCc3ccc(OC)c(OC)c3)c2n1 (stereo not given in full) | Unstable
* COc1ccc(NC(=O)OC(C)CNc2nc(NCc3ccc(OC)c(OC)c3)c3nc(NCC(C)O)nc(NCc4ccc(OC)c(OC)c4)c3n2)cc1 (stereo not given) | Stable

We next turn to a different molecule, shown below.
// Stability lookup, molecule = COc1ccc(CNc2nc(NCC(C)OP(=O)(O)O)nc3c(NCc4ccc(OC)c(OC)c4)nc(NCC(C)OC(=O)Nc4ccccc4)nc23)cc1OC (stereo not given) , result: Unstable
